# collection of IC50 values tested on PDE10A (Homo sapiens)
Structures can show the parent of a compound that is named as a salt.
Record the result as number plus unit.

Some entries whose results are on file:
# compound, IC50
measured = [
    ("CCCc1nc(O)c(Cc2cc3cc(OCC)c(F)cc3nc2NCC)c2cc(OC)c(OC)cc12 [Compound 86, dihydrochloride]", "0.3 nM"),
    ("COc1ccc2cc(Cc3c(O)nc(C)c4cc(OC)c(OC)cc34)cnc2c1 [Compound 29, dihydrochloride]", "29 nM"),
    ("CCCc1nc(O)c(Cc2cc3cc(OCC)ccc3nc2NCC)c2cc(OC)c(OC)cc12 [Compound 49, dihydrochloride]", "4.6 nM"),
]

Attention now turns to another entry.
Request: Give IC50 only, for COc1cc2c(C)nc(O)c(Cc3cncc(-c4ccccc4)c3)c2cc1OC [Compound 15, dihydrochloride] , using PDE10A (Homo sapiens) data.
Response: 97 nM

* * *

Counter-ions that a name gives are not always drawn.
# collection of IC50 values tested on PDE10A (Homo sapiens, UniProt Q9Y233)
# Sequence (Q9Y233 whole entry, looked up): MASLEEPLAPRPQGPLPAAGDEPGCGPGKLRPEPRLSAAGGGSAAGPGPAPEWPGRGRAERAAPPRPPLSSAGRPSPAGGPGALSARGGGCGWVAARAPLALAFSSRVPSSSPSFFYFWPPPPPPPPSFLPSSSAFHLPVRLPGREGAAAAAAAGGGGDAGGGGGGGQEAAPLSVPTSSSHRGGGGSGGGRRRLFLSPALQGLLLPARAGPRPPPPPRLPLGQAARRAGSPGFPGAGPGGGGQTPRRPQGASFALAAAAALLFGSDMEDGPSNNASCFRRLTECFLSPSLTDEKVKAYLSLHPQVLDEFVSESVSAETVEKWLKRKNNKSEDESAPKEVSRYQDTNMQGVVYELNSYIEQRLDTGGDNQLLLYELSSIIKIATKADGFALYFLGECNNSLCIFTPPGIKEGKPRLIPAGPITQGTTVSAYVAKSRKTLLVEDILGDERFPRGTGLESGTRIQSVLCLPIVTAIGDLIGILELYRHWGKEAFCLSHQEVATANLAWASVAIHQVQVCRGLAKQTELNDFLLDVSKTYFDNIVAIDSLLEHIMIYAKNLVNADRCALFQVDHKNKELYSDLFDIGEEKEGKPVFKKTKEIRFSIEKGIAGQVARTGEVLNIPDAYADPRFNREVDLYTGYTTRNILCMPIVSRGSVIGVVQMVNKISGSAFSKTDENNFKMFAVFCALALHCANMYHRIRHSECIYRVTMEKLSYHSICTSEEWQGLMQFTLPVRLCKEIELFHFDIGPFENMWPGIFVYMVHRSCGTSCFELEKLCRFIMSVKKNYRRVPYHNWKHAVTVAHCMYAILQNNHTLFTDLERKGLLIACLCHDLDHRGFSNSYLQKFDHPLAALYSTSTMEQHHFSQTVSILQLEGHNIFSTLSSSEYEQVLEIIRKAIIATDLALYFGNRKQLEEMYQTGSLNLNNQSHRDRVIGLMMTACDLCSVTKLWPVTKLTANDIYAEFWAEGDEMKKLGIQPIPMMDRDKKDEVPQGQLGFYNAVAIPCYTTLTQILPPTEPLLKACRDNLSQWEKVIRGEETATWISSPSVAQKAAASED
Please state the figure in nM; there is no need to write the unit.

Some entries whose results are on file:
# molecule, unit spec, measured result
rows = [
    ("CCCc1nc(O)c(Cc2ccc3nc(C)ccc3c2)c2cc(OC)c(OC)cc12 [Compound 80, dihydrochloride]", "nM", 3.2),
    ("COc1cc2c(C)nc(O)c(Cc3cccc(Oc4ccccc4)c3)c2cc1OC [Compound 4, hydrochloride]", "nM", 140),
    ("CCc1nc(O)c(Cc2cc3cc(OC)ccc3nc2NC(C)C)c2cc(OC)c(OC)cc12 [Compound 43, dihydrochloride]", "nM", 3.5),
]

Attention now turns to another entry.
Request: Give IC50 only, for CCCc1nc(O)c(Cc2cc3cc(OC)ccc3nc2NCC)c2cc(OC)c(OC)cc12 [Compound 50, dihydrochloride] , using PDE10A (Homo sapiens, UniProt Q9Y233) data.
Response: 0.28

* * *

Target: PDE10A (Homo sapiens, UniProt Q9Y233)
Structures can show the parent of a compound that is named as a salt.
Each record here notes measured IC50.
Record the result as number plus unit.

Some entries whose results are on file:
# compound, tested target, IC50
records = [
    ("CCNc1nc2ccc(OC)cc2cc1Cc1c(O)nc(C(C)C)c2cc(OC)c(OC)cc12 [Compound 47, dihydrochloride]", "PDE10A (Homo sapiens, UniProt Q9Y233)", "11 nM"),
    ("CCNc1nc2ccc(OC)cc2cc1Cc1c(O)nc(CNS(C)(=O)=O)c2cc(OC)c(OC)cc12 [Compound 58, dihydrochloride]", "PDE10A (Homo sapiens, UniProt Q9Y233)", "221 nM"),
]

Request: Give IC50 only, for CCCc1nc(O)c(Cc2cc3cc(C)ccc3nc2N(C)C)c2cc(OC)c(OC)cc12 [Compound 36, dihydrochloride] , using PDE10A (Homo sapiens, UniProt Q9Y233) data.
Response: 698 nM

Request: Give IC50 only, for CCc1nc(O)c(Cc2cc3cc(OC)ccc3nc2NCCOC)c2cc(OC)c(OC)cc12 [Compound 77, dihydrochloride] , using PDE10A (Homo sapiens, UniProt Q9Y233) data.
Response: 2 nM

Request: Give IC50 only, for COc1ccc(-c2cccc(Cc3c(O)nc(C)c4cc(OC)c(OC)cc34)n2)cc1 [Compound 13, dihydrochloride] , using PDE10A (Homo sapiens, UniProt Q9Y233) data.
Response: 50 nM

Request: Give IC50 only, for CCCc1nc(O)c(Cc2cc3cc(C)ccc3nc2NCC)c2cc(OC)c(OC)cc12 [Compound 35, dihydrochloride] , using PDE10A (Homo sapiens, UniProt Q9Y233) data.
Response: 1.5 nM

Request: Give IC50 only, for CCCNc1nc2ccc(OC)cc2cc1Cc1c(O)nc(CCC)c2cc(OC)c(OC)cc12 [Compound 52, dihydrochloride] , using PDE10A (Homo sapiens, UniProt Q9Y233) data.
Response: 1.5 nM
